Listing: interaction score of selected binders
Target: T1, 4H1710-bN
T1 chain: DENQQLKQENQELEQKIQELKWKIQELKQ
Assay: two-hybrid library CCNG1;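 further: natural log of median RNA to DNA barcode read ratio; higher means stronger binding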
measurementKind: interaction score

• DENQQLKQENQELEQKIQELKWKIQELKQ [4H1710-bN] = 0.191
• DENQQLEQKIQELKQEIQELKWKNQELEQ [4H1359-bN] = -0.607
• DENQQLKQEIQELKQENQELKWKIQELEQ [4H1629-bN] = -0.768
• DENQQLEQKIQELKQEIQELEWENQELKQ [4H1348-bN] = -1.09

Value source: paper PMC10397247
